# study-target: recombinant human B1 receptors (Homo sapiens, UniProt P46663)
# Construct: host or cells: CHO (CHO-B1)
# Sequence (P46663 whole entry): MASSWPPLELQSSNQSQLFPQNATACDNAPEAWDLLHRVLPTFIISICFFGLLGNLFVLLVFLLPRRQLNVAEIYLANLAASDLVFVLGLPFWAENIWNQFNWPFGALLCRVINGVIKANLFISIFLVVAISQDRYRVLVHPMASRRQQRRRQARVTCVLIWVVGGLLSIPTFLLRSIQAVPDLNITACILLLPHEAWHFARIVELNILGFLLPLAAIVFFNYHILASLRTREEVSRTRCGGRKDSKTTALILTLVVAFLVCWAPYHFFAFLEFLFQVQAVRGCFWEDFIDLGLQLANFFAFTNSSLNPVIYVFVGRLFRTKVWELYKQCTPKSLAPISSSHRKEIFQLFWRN
# procedure-summary: Functional assay: antagonist potency by cytosolic calcium measurement (plate reader fluorimeter) in CHO-B1 cells, agonist LysDABK
# Type: cell-based
# condition-label: reference compounds, functional test, measured by the applicant; read-out: IC50
metric-name: pIC50
Bear in mind: pIC50 is minus log10 of a mol/L concentration; give just that figure.

[[record]]
compound = "CCCN1C(=O)[C@H](NC(=O)Nc2ccc(N3CCC(N4CCCCC4)CC3)cc2)N=C(c2ccc(C)cc2)c2ccccc21 [reference compound]"
readout_number = 7.19


Shift focus to the following entry.
Sample CN1CCN(C(=O)C2CCN(S(=O)(=O)c3ccc(NCC(c4ccccc4)c4ccccc4)c(C(=O)N4CCOCC4)c3)CC2)CC1 [NVP-SAA164, reference compound] ; pIC50 observed: 7.48

====

# study-target: recombinant human B1 receptors (Homo sapiens)
# Construct: host or cells: CHO (CHO-B1)
# procedure-summary: Functional assay: antagonist potency by cytosolic calcium measurement (plate reader fluorimeter) in CHO-B1 cells, agonist LysDABK
# Type: cell-based
# condition-label: CHO-B1 cells, inhibition of LysDABK (EC80)-evoked [Ca2+]i elevation; read-out: B1 func.
# Description: Assessment of Antagonist Potency at B1 Receptors In Vitro by Measurement of Cytosolic Calcium Ion Concentration with a Plate Reader Fluorimeter in Cells Expressing Recombinant Human B1 Receptors […] Measurements of [Ca^2+]i were carried out on CHO-B1 cells stably expressing human B1 receptors, respectively. […] After incubation at 37° C. for 20-25 min. baseline and agonist-evoked changes of [Ca^2+]; were measured column by column with a plate reader fluorimeter (Fluoroskan Ascent, Labsystems). […]
Quick list: IC50 per entry.

Here is how some compounds turned out for IC50.
[[record]]
compound = "Cn1nnc(-c2c(Cl)c3ccccc3n2-c2ccc(CNC(=O)C3(NC(=O)CC(F)(F)F)CC3)cc2)n1"
result = "< 0.02 µM"

[[record]]
compound = "Cc1cc(C(=O)NC2(C(=O)NCc3ccc(-n4c(-c5noc(C)n5)c(Cl)c5ccccc54)cc3F)CC2)no1"
result = "< 0.02 µM"

[[record]]
compound = "COc1ccc2c(c1)c(Cl)c(-c1nc(C)no1)n2-c1ccc(CNC(=O)C2(NC(=O)c3cncc(C(F)(F)F)c3)CC2)cc1"
result = "< 0.02 µM"

[[record]]
compound = "Cc1nc(-c2c(Cl)c3ccccc3n2-c2ccc(CNC(=O)C3(NC(=O)C(F)(F)F)CC3)cc2)no1"
result = "< 0.02 µM"

[[record]]
compound = "COc1cc(C(=O)NC2(C(=O)NCc3ccc(-n4c(-c5noc(C)n5)c(Cl)c5cc(F)ccc54)cn3)CC2)on1"
result = "< 0.02 µM"


Sample Cc1nc(-c2c(Cl)c3ccccc3n2-c2ccc(CNC(=O)C3(NC(=O)C4CC4C)CC3)cc2)no1 (centres unmarked) ; IC50 observed: 0.02 to 0.1 µM

Sample `Cc1nc(-c2c(Cl)c3ccccc3n2-c2ccc(CNC(=O)C3(NC(=O)c4cccc(Br)n4)CC3)cc2)no1` ; IC50 observed: 0.02 to 0.1 µM

Sample `N#Cc1cc2cc(F)ccc2n1-c1ccc(CNC(=O)C2(NC(=O)c3cncc(C(F)(F)F)c3)CC2)cc1` ; IC50 observed: < 0.02 µM

Sample `COc1cc(C(=O)NC2(C(=O)NCc3ccc(-n4c(-c5nc(C)no5)c(Cl)c5ccccc54)cn3)CC2)on1` ; IC50 observed: < 0.02 µM

Sample `COc1ccc2c(c1)cc(-c1nc(C)no1)n2-c1ccc(CNC(=O)C2(NC(=O)c3cncc(C(F)(F)F)c3)CC2)cc1` ; IC50 observed: < 0.02 µM

Sample `Cc1nc(-c2c(Cl)c3ccccc3n2-c2ccc(CNC(=O)C3(NC(=O)C=Cc4ccco4)CC3)cc2)no1` ; IC50 observed: 0.02 to 0.1 µM
